Assay: NCI Yeast Anticancer Drug Screen. Data for the mec2-1 strain (AID 157)
Conditions: S. cerevisiae mec2-1 strain, at 50.0 µM (retest, dose inferred, filed as 5.0), hits give high values
Experimental: Growth inhibition of yeast strains with defined genetic alterations is measured as a screen for potential anti-cancer activity. Selected strains with alterations in DNA damage repair or cell cycle control were exposed to compounds and growth inhibition was measured relative to vehicle treated controls. The strain used in this assay is mec2-1
Compounds without any hit were thinned out: in the full panel of roughly 79,000, 15% have a hit.

molecule: CC(C)=CCc1ccc(O)cc1
growth inhibition (%): 98
--
molecule: O=C(Nc1ccc(Cl)cc1)NS(=O)(=O)c1c(-c2ccccc2)oc2ccccc2c1=O
growth inhibition (%): 98
--
molecule: CCC1CN2CCc3cc(OC)c(OC)cc3C2CC1CC1c2cc(OC)c(OC)cc2CCN1C(=O)C(Cc1c[nH]c2ccccc12)NC(=O)OC(C)(C)C (centres undefined)
growth inhibition (%): 98
--
molecule: O=c1oc(-c2cc([N+](=O)[O-])cc([N+](=O)[O-])c2Cl)nc2ccccc12
growth inhibition (%): 22

###

experiment: NCI Yeast Anticancer Drug Screen. Data for the cln2 rad14 strain (AID 165);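 also: 0% = growth equal to vehicle treated cultures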; details: S. cerevisiae cln2 rad14 strain, at 5.0 µM (retest, dose inferred, filed as 0.5)
The panel holds about 79,000 compounds, 15% with a hit somewhere; the sample as a whole holds those more often. The source made the active and inactive calls. Cut-off read from the data, not from the text of the source: active = growth inhibition above about 70%; inactive = the rest.
Outcomes: Y for active, N for inactive

compound: COC(=O)n1c(C[P+](c2ccccc2)(c2ccccc2)c2ccccc2)cc2ccccc21
label-class: Y

compound: COC(O)C(=O)c1ccc2c(c1)CC1(C2)Cc2cc3c(cc2C1=O)CCC3 (configuration not stated)
label-class: N

compound: Nc1ccc(C(=O)/C=C/c2ccccc2O)cc1
label-class: N

compound: CC(C)=CCc1ccc(O)cc1
label-class: N

compound: c1ccc2c(c1)CCCc1cc3ccccc3nc1-2
label-class: N

compound: O=[N+]([O-])/C=C/c1cc2ccccc2[nH]1
label-class: N

compound: Oc1cc(Br)cc2cc(Br)cnc12
label-class: Y

compound: Cc1cc(=O)[nH]c(NN2C(Cl)C(=O)C2c2ccc(O)cc2)n1 (configuration not stated)
label-class: N

compound: O=C(/C=N/O)c1c(-c2ccccc2)[nH]c(-c2ccccc2)c1-c1ccccc1
label-class: N

compound: CC(C)c1ccc(O)c(Cc2cc(C(C)C)ccc2O)c1
label-class: N

compound: C(=N\N=C\c1ccc2c(c1)OCO2)/c1ccc2c(c1)OCO2
label-class: N

compound: Cc1cccc(/C=N\OCCc2ccccc2)n1
label-class: N

compound: COC(=O)C1=C(C)NC(C)=C(C(=O)OC)C1c1ccc(/[N+]([O-])=C/c2ccccc2)cc1
label-class: N

compound: COc1ccccc1C(=O)Nc1ccc(Cl)c(C(=O)OC(C)C)c1
label-class: N

compound: CCN(CC)P(=S)(c1ccccc1CCP(=S)(c1ccccc1)c1ccccc1)N(CC)CC
label-class: N

compound: CS/C(=N\C(=S)Nc1ccccc1)Nc1ccccc1
label-class: N

compound: S=C=NCCCCCCN=C=S
label-class: N

###

assay: NCI Yeast Anticancer Drug Screen. Data for the mec2-1 strain (AID 157); conditions: S. cerevisiae mec2-1 strain, at 50.0 µM, hits give high values
This is part of a sample that, as a whole, favours compounds with a hit. Of some 79,000 tested, about 15% had one in any assay.

molecule: c1ccc2c(c1)Sc1nccc3ccnc-2c13
growth inhibition, %: 79.3
--
molecule: C[n+]1c2ccccc2cc2[nH]c3ccccc3c21
growth inhibition, %: 78.6
--
molecule: Oc1ccc(C2CCCCC2)cc1
growth inhibition, %: 79.5
--
molecule: O=[N+]([O-])c1ccc(C(Nc2ccccc2)c2ccc3cccnc3c2O)cc1 (centres undefined)
growth inhibition, %: 80

Reference source for all entries: PubChem BioAssay (NCI)
